# Assayed target: UniProt Q9H3N8
pIC50: −log10 of the molar value.

Compound | pIC50
CC1Cc2ccc(-c3ccc(C(=O)N(C)CCN(C)C)nc3)cc2CN1c1cc(N2CCN(C)CC2)nc(N)n1 (single isomer, unassigned) [Example 52A] | 7.34
CC1Cc2ccc(-c3cnn(C4CCS(=O)(=O)C4)c3)cc2CN1c1cc(N2CCN(C)CC2)nc(N)n1 (single isomer, unassigned) [Example 98A] | 7.62
CC1Cc2ccc(-c3cnn(CCO)c3)cc2CN1c1cc(N2CCN(C)CC2)nc(N)n1 (single isomer, unassigned) [Example 110] | 7.46

---

Listed below: inhibition at 1 µM values for each entry.
# Assayed target: histamine H4 receptor (Homo sapiens, UniProt Q9H3N8)
# Construct: expressed in transfected cells; host or cells: HEK293SFM cells (membrane preparation)
# Sequence (Q9H3N8 whole entry): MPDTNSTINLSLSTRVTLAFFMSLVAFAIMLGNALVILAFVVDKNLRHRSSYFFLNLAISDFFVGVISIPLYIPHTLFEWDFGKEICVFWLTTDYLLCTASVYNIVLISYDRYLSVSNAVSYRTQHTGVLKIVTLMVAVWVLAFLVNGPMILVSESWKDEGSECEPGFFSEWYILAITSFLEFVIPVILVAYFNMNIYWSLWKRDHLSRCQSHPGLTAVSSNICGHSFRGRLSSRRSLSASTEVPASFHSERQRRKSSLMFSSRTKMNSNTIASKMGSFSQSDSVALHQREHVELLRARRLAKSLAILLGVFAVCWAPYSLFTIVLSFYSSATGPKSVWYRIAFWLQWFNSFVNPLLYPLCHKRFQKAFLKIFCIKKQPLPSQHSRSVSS
# Method description: Inhibition of histamine H4 receptor (Table A1; H4 membrane binding assay)

Compound | Value units | inhibition at 1 µM
CC1Cc2ccc(-c3ccn(CCO)n3)cc2CN1c1cc(N2CCN(C)CC2)nc(N)n1 (single isomer, unassigned) [Example 84B] | % | 52
CC1Cc2ccc(-c3ccn(CC#N)n3)cc2CN1c1cc(N2CCN(C)CC2)nc(N)n1 (single isomer, unassigned) [Example 82B] | % | 66
CC1Cc2ccc(-c3cc(C(=O)N(C)C)n(C)c3)cc2CN1c1cc(N2CCN(C)CC2)nc(N)n1 (single isomer, unassigned) [Example 89B] | % | 67

---

# Assayed target: histamine H4 receptor (Homo sapiens, UniProt Q9H3N8)
# Construct: expressed in transfected cells; host or cells: HEK293SFM cells (membrane preparation)
# Method description: Inhibition of histamine H4 receptor (Table A1; H4 membrane binding assay)
Think of 70% as a floor: if inhibition at 1 µM stands on it or above, it is true; beneath it, false.

Compound | Assayed target | Assigned category
CCNC(=O)c1cc(-c2ccc3c(c2)CN(c2cc(N4CCN(C)CC4)nc(N)n2)C(C)C3)cn1C (single isomer, unassigned) [Example 88B] | histamine H4 receptor (Homo sapiens, UniProt Q9H3N8) | true
CC1Cc2ccc(-c3cccc(C(=O)N(C)C)n3)cc2CN1c1cc(N2CCN(C)CC2)nc(N)n1 (single isomer, unassigned) | histamine H4 receptor (Homo sapiens, UniProt Q9H3N8) | false
CN1CCN(c2cc(N3CCc4ccc(NC(=O)N5CCCCC5)cc4C3)nc(N)n2)CC1 | histamine H4 receptor (Homo sapiens, UniProt Q9H3N8) | false
CC1Cc2ccc(-c3ccc(C(=O)N4CCCC4)nc3)cc2CN1c1cc(N2CCN(C)CC2)nc(N)n1 (single isomer, unassigned) [Example 55B] | histamine H4 receptor (Homo sapiens, UniProt Q9H3N8) | false
CC1Cc2ccc(-c3ccc(C(=O)N(C)C)nc3)cc2CN1c1cc(N2CCN(C)CC2)nc(N)n1 (single isomer, unassigned) | histamine H4 receptor (Homo sapiens, UniProt Q9H3N8) | true

---

// histamine H4 receptor (Homo sapiens, UniProt Q9H3N8) IC50 records

Compound | Censoring qualifier | IC50 (nM)
CNC(=O)c1ccc(-c2ccc3c(c2)CN(c2cc(N4CCN(C)CC4)nc(N)n2)C(CO)C3)cn1 (single isomer, unassigned) [Example 81A] | = | 75
CC1Cc2ccc(-c3ccn(C)n3)cc2CN1c1cc(N2CCN(C)CC2)nc(N)n1 (single isomer, unassigned) [Example 85A] | = | 20
CN1CCN(c2cc(N3CCc4ccc(N5CCC(O)(c6ccccc6)CC5)cc4C3)nc(N)n2)CC1 | = | 579
CC1Cc2ccc(-c3cc(C(=O)N4CCC4)n(C)c3)cc2CN1c1cc(N2CCN(C)CC2)nc(N)n1 (single isomer, unassigned) [Example 92A] | = | 25
CN1CCN(c2cc(N3CCc4ccc(-c5cnc(N6CCN(C(=O)OC(C)(C)C)CC6)nc5)cc4C3)nc(N)n2)CC1 | > | 1000
CNC(=O)c1ccc(-c2ccc3c(c2)CN(c2cc(N4CCN(C)CC4)nc(N)n2)C(C)C3)cn1 (single isomer, unassigned) [Example 49B] | = | 38
Cc1cccc(Nc2ccc3c(c2)CN(c2cc(N4CCN(C)CC4)nc(N)n2)CC3)n1 | = | 543
